Hi there, I'd appreciate the recorded Solubility × Photoreactivity for every entry that follows.
# assay explanation: Photolysis of PAGs in acetonitrile under 365 nm irradiation (photoreactivity)
# Format: physicochemical
# run parameters: product of solubility in PGMEA and relative photoreactivity at 365 nm
Give bare numbers, in %.

CCCCOC(=O)/C=C/c1ccc2c3c(cccc13)C(=O)N(OS(=O)(=O)C(F)(F)F)C2=O | 12.4
O=C1c2cccc3c(/C=C/c4ccccc4)ccc(c23)C(=O)N1OS(=O)(=O)C(F)(F)F | 13.1
O=C1c2cccc3cccc(c23)C(=O)N1OS(=O)(=O)C(F)(F)F [NIT, N-Hydroxynaphthalimide triflate, reference compound] | 1.7
CCC(C)Oc1ccc(/C=C/c2ccc3c4c(cccc24)C(=O)N(OS(=O)(=O)C(F)(F)F)C3=O)cc1 (centres unmarked) | 37.4

Now look at this one.
So, O=C1c2cccc3c(C#Cc4ccccc4)ccc(c23)C(=O)N1OS(=O)(=O)C(F)(F)F [Comparative Compound A, reference compound] ? Its Solubility × Photoreactivity was 2.5
